cytotoxicity at 70.5 h reference
ASSAY REMARKS: Human HepG2 cell viability assay in 384 well format
Assay type: toxicity, cell-based
Parameters: dose 125 nL, time 70.5 hour; concentration not given beside the values
CONDITION LABEL: HepG2 cells, read-out: Inhibition
Response body: numeric value in %, unit text excluded.

COMPOUND	cytotoxicity at 70.5 h / %
O=S(=O)(NCCNc1cc(-n2cccn2)ncn1)c1cccs1	12.1
COCCN1CCO[C@H]2CCN(C(=O)c3cccs3)CC[C@@H]21	5.33
CC(C)c1ncc(CN2CCOC(C(=O)Nc3ccccc3)C2)cn1 (configuration not stated)	-9.69
CC1CN(c2ncnc3sccc23)CCN1c1nccs1 (configuration not stated)	-0.696
Cc1cc(NC(=O)NCCc2cccs2)n(C)n1	-1.92
CCc1n[nH]c(C2CN(C(=O)c3cc(C4CC4)on3)CCO2)n1 (configuration not stated)	-5.69
CNc1nc(C)c(C(=O)N2C[C@@H](C(=O)O)[C@H](C3CC3)C2)s1	-6.65
Cc1nc(NCc2coc(-c3ccccc3)n2)cc(C2CCNCC2)n1	-2.73

Reported cytotoxicity at 70.5 h for CN(CC(=O)N1CCCC1c1cnn(C)c1)Cc1ccccc1 (configuration not stated) was -11.9

Documented cytotoxicity at 70.5 h of CN1C(=O)CC[C@@H]2[C@H]1CCN2S(=O)(=O)c1cccs1 : -1.06

So for COCCC1(CO)CCCN(Cc2ccc(C#N)cc2)C1 (configuration not stated) , the logged cytotoxicity at 70.5 h turned out to be -1.95

###

ASSAY REMARKS: Human HepG2 cell viability assay in 384 well format
Type: toxicity, cell-based
Set-up: dose 125 nL, time 70.5 hour; concentration not given beside the values
CONDITION LABEL: HepG2 cells, read-out: Inhibition
MEASURE NAME: cytotoxicity at 70.5 h (%)
Give just the numeric value; % need not be written.

Given item CN1CCc2c(sc3c2C(=O)NC(/C=C/c2ccccc2)N3)C1 (stereo not drawn) , the value recorded as its cytotoxicity at 70.5 h is -11.3

###

Entries and their cytotoxicity at 70.5 h
ASSAY REMARKS: Human HepG2 cell viability assay in 384 well format
Format: toxicity, cell-based
Parameters: dose 125 nL, time 70.5 hour; concentration not given beside the values
CONDITION LABEL: HepG2 cells, read-out: Inhibition
Please give a number only; it is taken to be in %.

Answered cases to consult:
COMPOUND	REPORTED
Cc1occc1C(=O)N1CCC2(CC1)CC(c1cccnc1)C(=O)N2C (stereo not given)	-17.4
Cc1nc2c(c(NC(C)c3nnn[nH]3)n1)Cc1ccccc1OC2 (stereo not given)	-6.63
O=C1[C@H]2CN(Cc3cccs3)C[C@H]2CN1c1cncnc1	-6.91
Cn1ccnc1-c1nccn1-c1cccc(CN2CCCC2)c1	2.21
COc1ccc(C(=O)NCCCn2ccnc2)c(OC)n1	39.9
CSc1ncc(C(=O)NCc2cc3n(n2)CCCN(CC(C)C)C3)cn1	5.43
c1ccc2c(c1)N(CC1CCOC1)CC21CCN(c2cnccn2)CC1 (stereo not given)	-0.723
Cn1cc(CNc2cnn(CCO)c2)c(-c2ccncc2)n1	-5.07

response.value for COCC(=O)N1CCC2(CC1)NC(=O)[C@H]1CN(C(=O)N(C)C)C[C@H]12 (field: cytotoxicity at 70.5 h) = -7.64

compound CCc1c(C(=O)N2CCCC(N(C)C)C2)cnn1C(C)(C)C (stereo not given) , cytotoxicity at 70.5 h observed: -4.41

The reported value for Cc1nc2sccn2c1C(=O)N1CCn2nc(C(=O)NC3CC3)cc2C1 in terms of cytotoxicity at 70.5 h is -11.6

Looking up Cc1cc(N2CCN(Cc3ccc(C)o3)CC2)cc(C)n1 , I see its cytotoxicity at 70.5 h listed as -9.4

// sample O=C(CNc1nc(C2CC2)ns1)N1CCc2sccc2C1 , its cytotoxicity at 70.5 h was -10.8

According to the records, this compound COCC1CC2(CCNCC2)CN1c1ncccn1 (stereo not given) displays cytotoxicity at 70.5 h of 2.77
